- test-summary: total protein half-life in vivo (active degradation + dilution); higher = more stable protein
- assay-conditions: wild type E. coli NCM3722; growth: P-lim chemostat; doubling time 6 h
Can you tell me total protein half-life in vivo for the items I'm about to list?
Respond with the bare value in h.

[Q] Return reported total protein half-life in vivo. Input sequence: MSIRFARKADCAAIAEIYNHAVLYTAAIWNDQTVDADNRIAWFEARTLAGYPVLVSEENGVVTGYASFGDWRSFDGFRHTVEHSVYVHPDHQGKGLGRKLLSRLIDEARDCGKHVMVAGIESQNQASLHLHQSLGFVVTAQMPQVGTKFGRWLDLTFMQLQLDERTEPDAIG
[A] 5.91

[Q] Return reported total protein half-life in vivo. Input sequence: MKKNRAFLKWAGGKYPLLDDIKRHLPKGECLVEPFVGAGSVFLNTDFSRYILADINSDLISLYNIVKMRTDEYVQAARELFVPETNCAEVYYQFREEFNKSQDPFRRAVLFLYLNRYGYNGLCRYNLRGEFNVPFGRYKKPYFPEAELYHFAEKAQNAFFYCESYADSMARADDASVVYCDPPYAPLSATANFTAYHTNSFTLEQQAHLAEIAEGLVERHIPVLISNHDTMLTREWYQRAKLHVVKVRRSISSNGGTRKKVDELLALYKPGVVSPAKK [P0AEE8]
[A] 5.39

[Q] Return reported total protein half-life in vivo. Input sequence: MKVAKDLVVSLAYQVRTEDGVLVDESPVSAPLDYLHGHGSLISGLETALEGHEVGDKFDVAVGANDAYGQYDENLVQRVPKDVFMGVDELQVGMRFLAETDQGPVPVEITAVEDDHVVVDGNHMLAGQNLKFNVEVVAIREATEEELAHGHVHGAHDHHHDHDHDGCCGGHGHDHGHEHGGEGCCGGKGNGGCGCH [P0A9K9]
[A] 4.54

[Q] Return reported total protein half-life in vivo. Input sequence: MENQPKLNSSKEVIAFLAERFPHCFSAEGEARPLKIGIFQDLVDRVAGEMNLSKTQLRSALRLYTSSWRYLYGVKPGATRVDLDGNPCGELDEQHVEHARKQLEEAKARVQAQRAEQQAKKREAAATAGEKEDAPRRERKPRPTTPRRKEGAERKPRAQKPVEKAPKTVKAPREEQHTPVSDISALTVGQALKVKAGQNAMDATVLEITKDGVRVQLNSGMSLIVRAEHLVF
[A] 2.97

[Q] Return reported total protein half-life in vivo. Input sequence: MKKLKLHGFNNLTKSLSFCIYDICYAKTAEERDGYIAYIDELYNANRLTEILSETCSIIGANILNIARQDYEPQGASVTILVSEEPVDPKLIDKTEHPGPLPETVVAHLDKSHICVHTYPESHPEGGLCTFRADIEVSTCGVISPLKALNYLIHQLESDIVTIDYRVRGFTRDINGMKHFIDHEINSIQNFMSDDMKALYDMVDVNVYQENIFHTKMLLKEFDLKHYMFHTKPEDLTDSERQEITAALWKEMREIYYGRNMPAV [P0A7F6]
[A] 4.78

[Q] Return reported total protein half-life in vivo. Input sequence: MSLTLTLTGTGGAQGVPAWGCECAACARARRSPQYRRQPCSGVVKFNDAITLIDAGLHDLADRWSPGSFQQFLLTHYHMDHVQGLFPLRWGVGDPIPVYGPPDEQGCDDLFKHPGLLDFSHTVEPFVVFDLQGLQVTPLPLNHSKLTFGYLLETAHSRVAWLSDTAGLPEKTLKFLRNNQPQVMVMDCSHPPRADAPRNHCDLNTVLALNQVIRSPRVILTHISHQFDAWLMENALPSGFEVGFDGMEIGVA
[A] 4.41
